// reported EC50 for each item listed
- target-under-test: T1, human DLL4, full length, on cells (human, UniProt Q9NR61 27-685)
- T1 construct: also called huDLL4 cells; human DLL4-293G
- T1 sequence (Q9NR61 27-685 limits assumed): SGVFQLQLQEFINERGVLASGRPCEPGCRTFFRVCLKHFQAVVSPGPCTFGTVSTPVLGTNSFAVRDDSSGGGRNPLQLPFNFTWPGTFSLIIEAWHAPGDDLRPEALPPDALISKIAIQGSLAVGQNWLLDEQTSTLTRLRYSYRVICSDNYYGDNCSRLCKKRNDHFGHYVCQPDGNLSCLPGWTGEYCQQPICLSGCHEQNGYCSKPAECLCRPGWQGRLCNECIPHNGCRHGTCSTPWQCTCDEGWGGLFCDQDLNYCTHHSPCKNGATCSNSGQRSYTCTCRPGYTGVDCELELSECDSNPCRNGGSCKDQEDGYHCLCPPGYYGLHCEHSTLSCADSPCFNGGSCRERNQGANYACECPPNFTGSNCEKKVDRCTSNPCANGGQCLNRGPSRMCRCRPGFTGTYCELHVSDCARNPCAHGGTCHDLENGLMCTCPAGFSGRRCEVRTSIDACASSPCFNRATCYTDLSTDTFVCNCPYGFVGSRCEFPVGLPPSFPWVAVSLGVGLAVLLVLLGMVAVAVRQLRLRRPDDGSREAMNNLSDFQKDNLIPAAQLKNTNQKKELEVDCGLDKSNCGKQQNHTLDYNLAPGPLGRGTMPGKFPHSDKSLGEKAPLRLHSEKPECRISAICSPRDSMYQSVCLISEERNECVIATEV
- experiment-summary: FACS, DLL4 cells
quantity-name: EC50 (nM)

INSERT INTO results (binder, quantitative_readout) VALUES
  ('h1A11.6 (antibody, V domains shown, humanized IgG; also called VH.1a/VL.1a 1A11) VH: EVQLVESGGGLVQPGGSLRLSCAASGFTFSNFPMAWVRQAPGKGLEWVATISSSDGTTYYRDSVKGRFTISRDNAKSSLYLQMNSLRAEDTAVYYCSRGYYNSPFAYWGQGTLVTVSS VL: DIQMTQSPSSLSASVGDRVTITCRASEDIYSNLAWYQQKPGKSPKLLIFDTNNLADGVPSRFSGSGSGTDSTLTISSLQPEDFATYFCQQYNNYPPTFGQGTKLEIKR', 3.74),
  ('h1A11.2 (antibody, V domains shown, humanized IgG; also called VH.1/VL.1a 1A11) VH: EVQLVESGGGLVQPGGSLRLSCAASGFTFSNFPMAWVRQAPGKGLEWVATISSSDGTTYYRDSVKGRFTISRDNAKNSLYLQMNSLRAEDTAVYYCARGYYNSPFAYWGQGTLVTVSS VL: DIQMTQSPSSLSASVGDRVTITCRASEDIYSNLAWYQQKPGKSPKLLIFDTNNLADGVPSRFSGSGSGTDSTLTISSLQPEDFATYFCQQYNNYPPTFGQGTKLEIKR', 2.85),
  ('h1A11.9 (antibody, V domains shown, humanized IgG; also called VH.1b/VL.1 1A11) VH: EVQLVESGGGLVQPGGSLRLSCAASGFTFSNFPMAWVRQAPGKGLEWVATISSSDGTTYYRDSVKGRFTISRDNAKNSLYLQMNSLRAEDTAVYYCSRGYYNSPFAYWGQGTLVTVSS VL: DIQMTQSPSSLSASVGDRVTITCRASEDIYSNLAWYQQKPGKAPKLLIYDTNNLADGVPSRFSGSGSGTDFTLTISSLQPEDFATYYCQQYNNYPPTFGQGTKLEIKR', 3.28);
